// provenance: PubChem BioAssay (NCI)

Test system: M14 melanoma
Test: NCI tumour cell line growth inhibition, 48 h
*1 amine or outer side, *2 acyl side, *3 side chain or, on linkers, in order; H or OH if unused. Where a SMILES comes first, the peptide text is derived from it. [ ]: non-standard residue; d: D form. X32 = C[C@H](N[*:1])C(=O)C(C)(C)C(=O)[*:2]; Hmpa(2S,3S) = CC[C@H](C)[C@H](O)C(=O)O; NMeY = CN[C@@H](Cc1ccc(O)cc1)C(=O)O; NMeL = CN[C@@H](CC(C)C)C(=O)O; NMeV = CN[C@H](C(=O)O)C(C)C; βAla = NCCC(=O)O
quantity_kind: TGI (µM)
Give bare numbers, in µM.

// returns TGI for CC[C@H](C)[C@@H]1OC(=O)CCNC(=O)[C@@H](C)NC(=O)C(C)(C)C(=O)[C@H](C)NC(=O)[C@H](Cc2ccc(OC)cc2)N(C)C(=O)[C@H](C(C)C)N(C)C(=O)CNC(=O)[C@H](CC(C)C)N(C)C(=O)CNC1=O (cyclo(G[NMeL]G[NMeV][NMeY](Me)[X32][dA][βAla][Hmpa(2S,3S)])) with M14 melanoma; value = 10.2

// returns TGI for C=CC(Cl)(CBr)CCC(Br)C(C)(C)Cl (stereo unspecified) with M14 melanoma; value = 29

Attention now shifts to the item below.
// returns TGI for CN(Cc1cc(C(C)(C)C)cc(Br)c1O)Cc1cc(C(C)(C)C)cc(Br)c1O with M14 melanoma; value = 14.9

---

Tested on: OVCAR-3 ovarian
Test: NCI tumour cell line growth inhibition, 48 h
Consider the following compounds; for each one, report its TGI.
Numbers only, in µM.

So for O=C1C(Cl)=C(NCc2ccco2)C(=O)c2ccccc21 , the logged TGI turned out to be 19.4

So for Oc1ccc(-c2nc3ccc(Cl)cc3s2)cc1 , the logged TGI turned out to be 40.7

So for CCN1CCN(CC(=O)N2c3cccc4cccc(c34)N(C(=O)CN3CCN(CC)CC3)C2c2cn(-c3ccccc3)nc2-c2cccc([N+](=O)[O-])c2)CC1 , the logged TGI turned out to be 3.24

Attention now shifts to the item below.
So for Cn1cc(-c2ccc(-c3ccc(C4=NC5(CC5)C(=O)N4C[C@@H]4CCN(C(=O)C5CC5)C4)cc3)cc2)cn1 , the logged TGI turned out to be 28.1

---

Test system: LOX IMVI melanoma
Assay: NCI tumour cell line growth inhibition, 48 h
*1 amine or outer side, *2 acyl side, *3 side chain or, on linkers, in order; H or OH if unused. Where a SMILES comes first, the peptide text is derived from it. [ ]: non-standard residue; d: D form. X32 = C[C@H](N[*:1])C(=O)C(C)(C)C(=O)[*:2]; Hmpa(2S,3S) = CC[C@H](C)[C@H](O)C(=O)O; NMeY = CN[C@@H](Cc1ccc(O)cc1)C(=O)O; NMeL = CN[C@@H](CC(C)C)C(=O)O; NMeV = CN[C@H](C(=O)O)C(C)C; βAla = NCCC(=O)O
quantity_kind: TGI

Take a look at these entries with their results.
// returns TGI for COc1ccc2c(c1)CCc1c-2n(CCN2CCCCC2)c2ccc(OC)cc12 with LOX IMVI melanoma; value = > 100 µM

// returns TGI for NC(N)=Nc1ccc(CC(N)C(=O)O)cc1 (stereo not drawn) with LOX IMVI melanoma; value = > 12.5 µM

// returns TGI for C=CCC1C(=O)CC2(C)CC(=O)C(CC=C)C12C (stereo not drawn) with LOX IMVI melanoma; value = > 100 µM

// returns TGI for C(=C\c1ccco1)/c1cccc(/C=C/c2ccco2)n1 with LOX IMVI melanoma; value = > 50 µM

// returns TGI for CC(=O)OCc1ccc2oc(=O)c(C(=O)Oc3ccccc3)cc2c1 with LOX IMVI melanoma; value = > 100 µM

Report TGI for every entry below.
1. O=C(O)CN1C(=O)C(Cc2ccc(O)cc2)N=C(c2cccc(O)c2)c2ccccc21 (stereo not drawn)
2. CC(C)CC(NC(=O)OC(C)(C)C)C(=O)Nc1ccc(Nc2nc(F)nc(-c3c4ccccc4cn3C)n2)cc1 (stereo not drawn)
3. CO/N=C(\C)CCC#Cc1ccccc1C(=O)OC
4. CC1=C(C)Cc2c(O)ccc(O)c2C1

(A)
1. > 100 µM
2. > 100 µM
3. > 10 µM
4. 46.7 µM

Report TGI for every entry below.
1. COC(=O)/C=C/c1cc2c(cc1-c1c(C(=O)O)cc(OC)c(OC)c1OC)OCO2
2. CC[C@H](C)[C@@H]1OC(=O)CCNC(=O)[C@@H](C)NC(=O)C(C)(C)C(=O)[C@H](C)NC(=O)[C@H](Cc2ccc(OC)cc2)N(C)C(=O)[C@H](C(C)C)N(C)C(=O)CNC(=O)[C@H](CC(C)C)N(C)C(=O)CNC1=O (cyclo(G[NMeL]G[NMeV][NMeY](Me)[X32][dA][βAla][Hmpa(2S,3S)]))
3. Nc1onc2c1Cc1c(noc1N)-c1ccccc1-2
4. Cn1cc(C(=O)C[n+]2ccccc2)c2ccccc21
5. Oc1ccc2oc3ncc(Br)c(-c4ccccc4)c3c2c1
6. CC1(C)C2C=CC1C(=O)CC2 (stereo not drawn)
7. O=C1C(c2c(O)[nH]c3ccc(Br)cc23)=Nc2ccccc21
8. Cn1cc(-c2ccc(-c3ccc(C4=NC5(CC5)C(=O)N4C[C@@H]4CCN(C(=O)C5CC5)C4)cc3)cc2)cn1

(A)
1: > 10 µM; 2: 10.7 µM; 3: > 100 µM; 4: > 100 µM; 5: > 100 µM; 6: > 100 µM; 7: 25.8 µM; 8: 18 µM

Report TGI for every entry below.
1. CC(C)(C)OC(=O)N1C(c2cccnc2)=CC[C@H]2C3CC=C(c4cccnc4)[C@@]3(C)CC[C@@H]21 (stereo partly drawn)
2. COC(=O)c1ccccc1C1CN=NC12Cc1cc(C)ccc1C2=O (stereo not drawn)
3. COc1ccc2nc(-c3ccc(O)cc3)sc2c1

(A)
1. 8.41 µM
2. > 100 µM
3. 44.9 µM
